test system: P93_24; experiment: qHTS profiling for inhibitors of Plasmodium falciparum proliferation (AID 504749); also: nearly all actives have a fitted effect of over 60% in size; conditions: P. falciparum in erythrocytes, SYBR Green DNA, 72 h; series mostly up to 28.7 µM
Inconclusive results are not listed. Active and inactive are the calls of the source. Calls follow the shape of the dose curve; as a rule, active = well fitted inhibition curve with a large enough effect; inconclusive = small, poorly fitted or top-dose-only effect; inactive = flat fitted curve, though single readings scatter.
Pick one: active, inactive

# lookup: test call for "NS(=O)(=O)c1cc(Cl)c(Cl)c(S(N)(=O)=O)c1"
inactive

# lookup: test call for Cc1cc2nc3c(=O)[nH]c(=O)nc-3n(CC(O)C(O)C(O)CO)c2cc1C (configuration not stated)
inactive

# lookup: test call for "CC(C)CN(C[C@@H](O)[C@H](Cc1ccccc1)NC(=O)O[C@H]1CO[C@H]2OCC[C@H]21)S(=O)(=O)c1ccc(N)cc1"
inactive

# lookup: test call for "CS(=O)(=O)c1ccc(C2=C(c3ccccc3)C(=O)OC2)cc1"
inactive

# lookup: test call for N#CC(c1ccc(Cl)cc1)c1c(Cl)cc(-n2ncc(=O)[nH]c2=O)cc1Cl (configuration not stated)
inactive

# lookup: test call for Clc1ccc(COC(Cn2ccnc2)c2ccc(Cl)cc2Cl)c(Cl)c1 (configuration not stated)
active

# lookup: test call for "O=C(O)c1nc(=O)[nH]c(=O)[nH]1"
inactive

---

Provide the reported activity of each item.
target: Phenylethanolamine N-methyltransferase (Homo sapiens); test: Confirmatory Screen for Target Class Profiling of Small Molecule Inhibitors of Methyltransferases (AID 1745852); conditions: MTase-Glo luminescence, SAH detection, recombinant enzyme; measured here: PNMT max response; stronger effect = lower value
Report the figure along with its unit, number first.

Lab book: activity of "NS(=O)(=O)c1ccc(Nc2nc(OCC3CCCCC3)c3[nH]cnc3n2)cc1" noted as -14.7%

Lab book: activity of "CN1CCc2c(n(Cc3ccc(C(=O)NO)cc3)c3ccccc23)C1" noted as 4.88%

Lab book: activity of "c1ccc(-c2oc3ncnc(NC[C@@H]4CCCO4)c3c2-c2ccccc2)cc1" noted as -56.7%

Lab book: activity of "c1cc(OCCN2CCCCC2)cc(-c2n[nH]c3ccc(-c4ncn[nH]4)cc23)c1" noted as -6.71%

Lab book: activity of CNC1CCC(N(Cc2cccc(-c3ccncc3)c2)C(=O)c2sc3ccccc3c2Cl)CC1 (stereo not given) noted as -20.3%

Lab book: activity of "Cc1ccc2c(c1)c1c(n2CCc2ccc(C)nc2)CCN(C)C1" noted as -2.48%

Lab book: activity of "CC(C)CNc1ccnc(NCc2csc(-c3ccccc3)n2)n1" noted as -20.3%

Lab book: activity of Nc1ncnc2c1c(-c1cccc(OCc3ccccc3)c1)cn2C1CC(CN2CCC2)C1 (stereo not given) noted as -91.7%

Lab book: activity of "Nc1[nH]nc2nnc(-c3c(-c4ccccc4)nn4ccccc34)cc12" noted as -92.5%

Lab book: activity of "Clc1ccc(C2(c3ccc(-c4cn[nH]c4)cc3)CCNCC2)cc1" noted as -4.19%

---

assay: qHTS drug screen for cell cycle checkpoint inhibitors in PARPi-resistant BRCA-mutant ovarian cancer cell lines. (AID 1963452); settings: PEO1/OlaR viability, CellTiter-Glo luminescence, 96 h; measured here: PEO4 Z-AUC; stronger effect = lower value
measurement_name: Z-AUC
Provide a numeric answer; units are not to be included.

Lab book: Z-AUC of "NC[C@H]1O[C@H](O[C@@H]2[C@@H](O)[C@@H](O[C@H]3O[C@H](CO)[C@@H](O)[C@H](N)[C@@H]3O)[C@H](N)C[C@@H]2N)[C@H](O)[C@@H](O)[C@H]1O" noted as 0.763

Lab book: Z-AUC of "CN1C(=O)C[C@H](C(=O)N[C@@H](Cc2cnc[nH]2)C(=O)N2CCC[C@@H]2C(N)=O)NC1=O" noted as 1.02

Lab book: Z-AUC of "CCC[C@H](Nc1nc(-c2ccc(NC(=O)NCC)c(OC)c2)ncc1C)c1cccnc1" noted as -3.47

Lab book: Z-AUC of "NS(=O)(=O)c1cc(Cl)c(Cl)c(S(N)(=O)=O)c1" noted as 0.359

Lab book: Z-AUC of "COc1cc2ncnc(Nc3cc(Br)c(O)c(Br)c3)c2cc1OC" noted as -1.13

Lab book: Z-AUC of "CC1=C[C@@H]2[C@@H]([C@@H](O)C[C@@]3(C)[C@H]2C[C@@H](C)[C@]3(O)C(=O)CO)[C@@]2(C)Cc3cnn(-c4ccccc4)c3C=C12" noted as -1.25

Lab book: Z-AUC of COc1ccc(-c2nc3ccc(C4=NNC(=O)CC4C)cc3[nH]2)cc1 (stereo not drawn) noted as 0.0118

Lab book: Z-AUC of "O=c1cc(-c2ccc(O)c(O)c2)oc2cc(O)cc(O)c12" noted as 0.398

---

assay: qHTS of pediatric cancer cell lines to identify multiple opportunities for drug repurposing: Confirmatory screen for DAOY cells (AID 1347114); conditions: DAOY medulloblastoma cells viability, cytotoxicity qHTS; series mostly up to 45.9 µM; also: nearly all actives have a fitted effect of over 65% in size
Results filed as inconclusive are left out. The source made the active and inactive calls. Calls come from the whole dose curve; as a rule, active = well fitted cell-killing curve with a large enough effect; inconclusive = small, poorly fitted or top-dose-only effect; inactive = no such curve, though single readings can be large or run the other way.
Pick one: 1 (active), -1 (inactive)

# lookup: test call for "CO[C@H]1/C=C\O[C@@]2(C)Oc3c(C)c(O)c4c(O)c(c5c(nc6cc(C)ccn65)c4c3C2=O)NC(=O)C(C)=CC=C[C@H](C)[C@H](O)[C@@H](C)[C@@H](O)[C@@H](C)[C@H](OC(C)=O)[C@H]1C"
-1

# lookup: test call for "CC(=O)N1CCN(c2ccc(OCc3nn(C)c(C)c3-c3cccc4c(CCCOc5cc(C)c(Cl)c(C)c5)c(C(=O)O)n(Cc5cccnc5)c34)cc2)CC1"
-1

# lookup: test call for "C[C@@]1(c2cc(-c3cncnc3)c(F)cc2F)CCSC(N)=N1"
-1

# lookup: test call for CC1CNc2c(cccc2S(=O)(=O)N[C@@H](CCCN=C(N)N)C(=O)N2CC[C@@H](C)C[C@@H]2C(=O)O)C1 (some centres not stated)
-1

# lookup: test call for "Nc1ccn([C@@H]2O[C@H](CO)[C@@H](O)[C@H]2O)c(=O)n1"
-1

# lookup: test call for Cc1nn(Cc2ccccc2Cl)c(C)c1CN(C)CC(O)COc1ccc(Cl)cc1 (configuration not stated)
1

# lookup: test call for CC1=C(CC(=O)O)c2cc(F)ccc2C1=Cc1ccc(S(C)=O)cc1 (configuration not stated)
-1

---

experiment: Quantitative High-Throughput drug screen in 47 multiple myeloma cell lines against the NCATS MIPE library collection: LP1_DSMZ cell viability assay (AID 1918982); conditions: LP1 myeloma viability, CellTiter-Glo ATP luminescence, 48 h; series mostly up to 45.8 µM; also: nearly all actives have a fitted effect of over 35% in size; also: potency is read from the fitted curve at half-maximal effect
Inconclusive results are not listed. Activity calls are given as the source filed them. The call rests on the fitted dose curve; in most records, active means well fitted cell-killing curve with a large enough effect; inconclusive means small, poorly fitted or top-dose-only effect, or effect the other way; inactive means no such curve, though single readings can be large or run the other way.
measurement_name: Potency

Examples with their reported Potency follow.
[
  {
    "chemical_smiles": "Cc1nc(C(=O)NCC(=O)O)c(O)c2ccc(Oc3ccccc3)cc12",
    "Potency": "inactive"
  },
  {
    "chemical_smiles": "Cc1cc(OCCCS(C)(=O)=O)cc(C)c1-c1cccc(COc2ccc3c(c2)OC[C@H]3CC(=O)O)c1",
    "Potency": "16.6 µM (active)"
  },
  {
    "chemical_smiles": "CC(C)c1c(C(=O)Nc2ccccc2)c(-c2ccccc2)c(-c2ccc(F)cc2)n1CC[C@H](O)C[C@@H](O)CC(=O)O",
    "Potency": "20.9 µM (active)"
  },
  {
    "chemical_smiles": "O=C(Nc1ccc(OC(F)(F)F)cc1)c1sccc1NCc1ccnc2ccccc12",
    "Potency": "20.9 µM (active)"
  }
]

Lab book: Potency of "COc1ccc2c(c1)c(C1=C(c3c[nH]c4ccccc34)C(=O)NC1=O)cn2CCCN(C)C" noted as inactive

---

assay: qHTS of pediatric cancer cell lines to identify multiple opportunities for drug repurposing: Primary screen for DAOY cells (AID 1347090); details: DAOY medulloblastoma viability, CellTiter-Glo luminescence, 48 h; series mostly up to 46 µM; also: nearly all actives have a fitted effect of over 55% in size
Results filed as inconclusive are left out. Calls of active or inactive are those of the source. Calls come from the whole dose curve; as a rule, active = well fitted cell-killing curve with a large enough effect; inconclusive = small, poorly fitted or top-dose-only effect; inactive = flat fitted curve, though single readings scatter.
Pick one: active, inactive

# lookup: test call for "Nc1nc(Cl)nc2c1ncn2[C@@H]1O[C@H](CO)[C@@H](O)[C@H]1F"
active

# lookup: test call for "CN(C)CCCNC(=O)c1ccc(-c2cc(O)c3ncccc3c2)cc1"
inactive

# lookup: test call for CN1CC(=O)N2C(Cc3c([nH]c4ccccc34)[C@H]2c2ccc3c(c2)OCO3)C1=O (some centres undefined)
inactive

# lookup: test call for "CCOC(=O)c1c(CSc2ccccc2)n(C)c2cc(Br)c(O)c(CN(C)C)c12"
inactive

# lookup: test call for "COc1ccc(-c2oc3c(CC=C(C)C)c(O)cc(O)c3c(=O)c2O)cc1"
active

# lookup: test call for "N#Cc1ccc(Oc2ccc3c(c2)COB3O)cc1"
inactive

# lookup: test call for "CCNC(=O)Nc1ccc(Oc2ncnc(N)c2C=NOC)cc1Cl"
inactive

# lookup: test call for CC1(C)OC2CC3C4CC(F)C5=CC(=O)C=CC5(C)C4C(O)CC3(C)[C@]2(C(=O)CO)O1 (some centres undefined)
inactive

# lookup: test call for "CNC(=O)[C@H](CC1=CN=C2C=CCC=C12)NC(=O)[C@@H](CC(=O)NO)CC(C)C"
active

# lookup: test call for "Cc1cc2c(cc1C1(c3ccc(C(=O)O)cn3)CC1)C(C)(C)CCC2(C)C"
inactive

# lookup: test call for "C[C@]12C=CC(=O)C=C1CC[C@@H]1[C@@H]2[C@@H](O)C[C@@]2(C)[C@@H]1CC[C@]2(O)C(=O)CO"
inactive

# lookup: test call for "CN(C)CCN(C)C(=O)c1ccc(NC(=O)Nc2ccc(-c3nc(N4CCOCC4)c4ccn(CC(F)(F)F)c4n3)cc2)cc1"
active

# lookup: test call for "C[C@@H]1CCO[C@H]2Cn3cc(C(=O)NCc4ccc(F)cc4F)c(=O)c(O)c3C(=O)N12"
inactive

# lookup: test call for "O=C1CCCC(=O)C1C(=O)c1ccc(C(F)(F)F)cc1[N+](=O)[O-]"
inactive

# lookup: test call for "Cc1nc(C(=O)NCC(=O)O)c(O)c2ccc(Oc3ccccc3)cc12"
inactive

# lookup: test call for "CO[C@H]1O[C@@H]2O[C@@]3(C)CC[C@@H]4[C@@H](C)CC[C@@H]([C@H]1C)[C@@]24OO3"
inactive

# lookup: test call for "CC(C)c1c(C(=O)Nc2ccccc2)c(-c2ccccc2)c(-c2ccc(F)cc2)n1CC[C@H](O)C[C@@H](O)CC(=O)O"
active

# lookup: test call for "O=C(O)C1=CO[C@@H](O[C@@H]2O[C@H](CO)[C@H](O)[C@H](O)[C@H]2O)[C@@H]2C(CO)=CC[C@H]12"
inactive

# lookup: test call for "Cc1cnc(CNC(=O)c2c(=O)c3ccc(N4CCCN(C)CC4)nc3n3c2sc2ccccc23)cn1"
inactive

# lookup: test call for "O=C(O)Cc1cccc(OCCCN(Cc2cccc(C(F)(F)F)c2Cl)CC(c2ccccc2)c2ccccc2)c1"
active

# lookup: test call for O=C(O)C1=CC(O)C(O)[C@H](O)C1 (some centres undefined)
inactive

# lookup: test call for "COc1cc(C=CC(=O)O)ccc1O"
inactive

# lookup: test call for "Cc1cc(NC(=O)Nc2ccc(N(C)C)cc2)c2cc(F)cc(F)c2n1"
inactive

# lookup: test call for "CCOC(=O)[C@@H](N)CCC(=O)N[C@@H](CSCc1ccccc1)C(=O)N[C@@H](C(=O)OCC)c1ccccc1"
inactive

# lookup: test call for "CCOC(=O)N1c2ccc(C(F)(F)F)cc2[C@@H](N(Cc2cc(C(F)(F)F)cc(C(F)(F)F)c2)C(=O)OC)C[C@H]1CC"
inactive

# lookup: test call for "Cc1cnc(-c2cc(N3CCN(C(=O)CCS(C)(=O)=O)CC3)ncc2Cl)c(C)c1"
inactive

# lookup: test call for "Cc1ccc2c(c1)c1c(n2CCc2ccc(C)nc2)CCN(C)C1"
inactive

# lookup: test call for "O=C1NC(=O)C(c2cnc3ccccn23)=C1c1cn2c3c(cccc13)CN(C(=O)N1CCOCC1)CC2"
active

# lookup: test call for "COc1ccc2c(c1)c(C1=C(c3c[nH]c4ccccc34)C(=O)NC1=O)cn2CCCN(C)C"
inactive

# lookup: test call for "CN(C)c1ccccc1CN1CCCN(Cc2ccccc2N(C)C)C1c1ccncc1"
inactive

# lookup: test call for "CS(=O)(=O)c1ccc(C2=C(c3ccccc3)C(=O)OC2)cc1"
inactive

# lookup: test call for "COc1nc(C)cnc1NS(=O)(=O)c1cccnc1-c1ccc(-c2nnco2)cc1"
inactive

# lookup: test call for "CC1CCN(c2cc(N3CCN(C)CC3)ccc2NC(=O)c2cc(C#N)c[nH]2)CC1"
inactive

# lookup: test call for CC=C1C2C=C(C)CC1(N)c1ccc(=O)[nH]c1C2 (centres undefined)
inactive

# lookup: test call for CCC(C)SSc1ncc[nH]1 (centres undefined)
active

# lookup: test call for "NC(=O)c1ccc(N(C(N)=O)c2c(F)cccc2F)nc1-c1ccc(F)cc1F"
active

# lookup: test call for "CCOC(=O)[C@H]1O[C@H]1C(=O)N[C@@H](CC(C)C)C(=O)NCCC(C)C"
inactive

# lookup: test call for "CC(C)=CCCC(C)=CCCC(C)=CCCC(C)=CCCC(C)=CCCC(C)=CCCC(C)=CCCC(C)=CCCC(C)=CCO"
inactive

# lookup: test call for COC1CCC(C(=O)c2ccc3nc4c(cc3c2)CCCO4)CC1 (centres undefined)
inactive
